experiment: self-splicing fitness, log relative to wild type (ln ratio); higher = more splicing; Tetrahymena group I intron in knt gene, E. coli kanamycin selection, DiMSum; sequences stand for … in CUCUCU…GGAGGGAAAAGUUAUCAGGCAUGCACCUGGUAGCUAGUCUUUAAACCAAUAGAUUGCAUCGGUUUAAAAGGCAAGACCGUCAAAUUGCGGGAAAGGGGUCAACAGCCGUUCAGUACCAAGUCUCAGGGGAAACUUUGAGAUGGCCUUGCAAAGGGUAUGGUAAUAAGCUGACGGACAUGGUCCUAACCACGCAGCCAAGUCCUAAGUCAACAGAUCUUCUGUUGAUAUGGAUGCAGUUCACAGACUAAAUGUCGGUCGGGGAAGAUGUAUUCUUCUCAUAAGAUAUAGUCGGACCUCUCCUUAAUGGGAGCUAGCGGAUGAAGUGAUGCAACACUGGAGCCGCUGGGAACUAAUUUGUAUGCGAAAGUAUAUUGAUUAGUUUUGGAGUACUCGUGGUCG; conditions: 30 °C;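 further: selection with 25 µg/mL kanamycin versus none on LB agar overnight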
Lab note: compare self-splicing fitness (ln) against -3. Equal or greater, write Y. Smaller, write N.

Some solved entries appear below for comparison.
> print(dat)
       monomer.sequence  class.label
1  AAAGAGCAAUAUUACGUCCU            Y
2  GCUGAGCAAUAUUACGUGGA            Y
3  GGCGAGCAAUAUUACGGAGG            Y

[in] Threshold query (self-splicing fitness (ln) >= -3) on `CAUAAGCAAUAUUACGAGAC`
[out] N

[in] I'd appreciate it if you could say whether `CCCUAGCAAUAUUACGGAUU` has self-splicing fitness (ln) at least equal to -3.
[out] N

[in] Quick check, self-splicing fitness (ln) >= -3? `UGGCAGCAAUAUUACGACAU`
[out] Y

[in] Exam item: decide whether the reported self-splicing fitness (ln) for `UCCGAGCAAUAUUACGUCAA` is at least -3.
[out] Y
